Items are presented alongside their recorded EC50.
target: human GPR40 (Homo sapiens); assay: Determination of EC50 on human GPR40 (intracellular calcium change by FLIPR in CHO cells stably expressing human GPR40); conditions: CHO cell line stably expressing human GPR40; changes in intracellular calcium concentration measured by FLIPR (Fluo3-AM); read-out: EC50 (Receptor Function Modulating Action on GPR40)
Sequence (O14842 whole entry): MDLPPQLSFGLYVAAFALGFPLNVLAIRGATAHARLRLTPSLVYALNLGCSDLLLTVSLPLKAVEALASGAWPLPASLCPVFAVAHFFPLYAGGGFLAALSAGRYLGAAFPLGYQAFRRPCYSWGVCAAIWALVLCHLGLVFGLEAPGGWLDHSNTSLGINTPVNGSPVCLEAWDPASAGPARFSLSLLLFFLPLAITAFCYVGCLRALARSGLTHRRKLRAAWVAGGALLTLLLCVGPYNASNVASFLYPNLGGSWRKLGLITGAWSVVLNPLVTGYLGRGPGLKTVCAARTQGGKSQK

COMPOUND	EC50
O=C(O)CC1CCCc2cc(OCc3cccc(Oc4ccccc4)c3)ccc21 (stereo not drawn) [Example 6]	< 100 nM

Param item: CCCN(Cc1ccc(COc2ccc3c(c2)CCCC3CC(=O)O)cc1)c1nc(-c2ccccc2)cs1 (stereo not drawn) [Example 19] ; param system: human GPR40 (Homo sapiens); output EC50: < 1000 nM

Param item: O=C(O)CC1CCc2cc(OCc3cccc(Oc4ccccc4)c3)ccc21 (stereo not drawn) [Example 15] ; param system: human GPR40 (Homo sapiens); output EC50: < 100 nM

Param item: Cc1cccc(C)c1-c1cccc(COc2ccc3c(c2)OCCC(C(=O)O)C3)c1 (stereo not drawn) [Example 13] ; param system: human GPR40 (Homo sapiens); output EC50: < 100 nM
